The origin of these recorded values is patent US12624044B2.

target: SMARCA4 (Homo sapiens); construct: SMARCA2 and SMARCA4 protein degradation in MV4-11 cells; endogenous in cells; host or cells: MV4-11; experiment: SMARCA4 Western blot MV4-11 degradation; assay type: cell-based; conditions: MV4-11, MV4-11 cells, 24 h, read-out: SMARCA4 WB MV411 degradation 24 h: Average Dmax %
Sequence (P51532 whole entry): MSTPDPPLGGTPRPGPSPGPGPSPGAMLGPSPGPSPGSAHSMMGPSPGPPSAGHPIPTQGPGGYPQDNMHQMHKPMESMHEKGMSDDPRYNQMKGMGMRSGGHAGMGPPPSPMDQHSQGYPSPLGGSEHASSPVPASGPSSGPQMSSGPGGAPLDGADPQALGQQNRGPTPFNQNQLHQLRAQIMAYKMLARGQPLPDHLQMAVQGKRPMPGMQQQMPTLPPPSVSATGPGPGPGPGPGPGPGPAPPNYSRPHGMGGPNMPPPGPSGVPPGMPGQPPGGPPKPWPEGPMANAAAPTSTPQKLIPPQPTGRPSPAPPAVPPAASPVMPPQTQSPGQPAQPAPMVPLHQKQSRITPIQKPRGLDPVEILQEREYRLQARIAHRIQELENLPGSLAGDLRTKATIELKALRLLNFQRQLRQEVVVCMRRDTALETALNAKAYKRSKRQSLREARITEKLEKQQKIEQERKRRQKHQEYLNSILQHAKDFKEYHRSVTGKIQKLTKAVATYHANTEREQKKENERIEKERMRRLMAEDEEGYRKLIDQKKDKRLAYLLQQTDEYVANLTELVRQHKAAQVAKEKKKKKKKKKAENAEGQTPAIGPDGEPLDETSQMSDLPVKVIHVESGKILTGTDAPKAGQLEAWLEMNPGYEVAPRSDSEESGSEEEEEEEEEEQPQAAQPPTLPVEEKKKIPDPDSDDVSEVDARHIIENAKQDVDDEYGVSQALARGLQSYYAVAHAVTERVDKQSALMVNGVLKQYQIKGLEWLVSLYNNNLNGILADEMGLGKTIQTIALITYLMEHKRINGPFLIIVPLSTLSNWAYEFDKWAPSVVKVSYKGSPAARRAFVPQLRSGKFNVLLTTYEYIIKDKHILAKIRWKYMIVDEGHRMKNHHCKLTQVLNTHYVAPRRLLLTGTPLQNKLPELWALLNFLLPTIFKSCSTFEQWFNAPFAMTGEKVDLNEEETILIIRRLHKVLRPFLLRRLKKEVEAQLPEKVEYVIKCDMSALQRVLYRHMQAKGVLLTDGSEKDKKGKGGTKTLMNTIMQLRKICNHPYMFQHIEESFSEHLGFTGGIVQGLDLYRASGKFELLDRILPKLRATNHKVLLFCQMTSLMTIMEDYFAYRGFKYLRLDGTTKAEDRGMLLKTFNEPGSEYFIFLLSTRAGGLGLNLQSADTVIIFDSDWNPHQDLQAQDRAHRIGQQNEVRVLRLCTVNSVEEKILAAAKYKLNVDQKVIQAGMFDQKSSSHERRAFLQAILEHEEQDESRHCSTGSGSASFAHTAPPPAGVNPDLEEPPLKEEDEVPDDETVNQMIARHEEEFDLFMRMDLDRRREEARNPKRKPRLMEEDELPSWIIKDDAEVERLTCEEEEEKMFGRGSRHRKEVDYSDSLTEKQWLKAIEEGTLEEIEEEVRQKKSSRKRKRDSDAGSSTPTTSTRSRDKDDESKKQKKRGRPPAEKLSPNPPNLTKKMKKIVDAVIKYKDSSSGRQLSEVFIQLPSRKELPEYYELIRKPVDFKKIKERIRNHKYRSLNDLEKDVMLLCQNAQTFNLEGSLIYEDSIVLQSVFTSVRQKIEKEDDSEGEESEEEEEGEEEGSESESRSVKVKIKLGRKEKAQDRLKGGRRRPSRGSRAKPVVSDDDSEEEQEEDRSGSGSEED
Documented Dmax across a set of compounds

Reference set, count: 2
Cc1ncsc1-c1ccc(CNC(=O)[C@@H]2C[C@@H](O)CN2C(=O)[C@@H](NC(=O)C2(F)CC2)C2CCC(N(C)CCCc3cnc(N4C5CCC4CN(c4cc(-c6ccccc6O)nnc4N)C5)nc3)CC2)cc1 (some centres unmarked): 50 to 70%
Cc1ncsc1-c1ccc(CNC(=O)[C@@H]2C[C@@H](O)CN2C(=O)[C@@H](NC(=O)Cc2ccc(N3CCC(c4cnc(N5C6CCC5CN(c5cc(-c7ccccc7O)nnc5N)C6)nc4)CC3)cc2)C(C)(C)C)cc1: 70 to 90%

Task: # input compound: Cc1ncsc1-c1ccc(CNC(=O)[C@@H]2C[C@@H](O)CN2C(=O)[C@@H](NC(=O)C2CCN(C(=O)c3cnc(N4C5CCC4CN(c4cc(-c6ccccc6O)nnc4N)C5)nc3)CC2)C(C)(C)C)cc1 ; wanted: its Dmax
Result: 70 to 90%

Task: Endpoint output: Dmax of Nc1nnc(-c2ccccc2O)cc1N1CC2CCC(C1)N2c1ncc(C2CCN(CCCCCNC(=O)COc3ccc4c(c3)CCCN4C(=O)CCl)CC2)cn1 . Value?
Result: 70 to 90%

---

biological target: SMARCA2 (Homo sapiens); assay: MSD SMARCA2 degradation in A549 cell line; format: cell-based; details: A549, A549 cells, 24 h
Sequence (P51531 whole entry): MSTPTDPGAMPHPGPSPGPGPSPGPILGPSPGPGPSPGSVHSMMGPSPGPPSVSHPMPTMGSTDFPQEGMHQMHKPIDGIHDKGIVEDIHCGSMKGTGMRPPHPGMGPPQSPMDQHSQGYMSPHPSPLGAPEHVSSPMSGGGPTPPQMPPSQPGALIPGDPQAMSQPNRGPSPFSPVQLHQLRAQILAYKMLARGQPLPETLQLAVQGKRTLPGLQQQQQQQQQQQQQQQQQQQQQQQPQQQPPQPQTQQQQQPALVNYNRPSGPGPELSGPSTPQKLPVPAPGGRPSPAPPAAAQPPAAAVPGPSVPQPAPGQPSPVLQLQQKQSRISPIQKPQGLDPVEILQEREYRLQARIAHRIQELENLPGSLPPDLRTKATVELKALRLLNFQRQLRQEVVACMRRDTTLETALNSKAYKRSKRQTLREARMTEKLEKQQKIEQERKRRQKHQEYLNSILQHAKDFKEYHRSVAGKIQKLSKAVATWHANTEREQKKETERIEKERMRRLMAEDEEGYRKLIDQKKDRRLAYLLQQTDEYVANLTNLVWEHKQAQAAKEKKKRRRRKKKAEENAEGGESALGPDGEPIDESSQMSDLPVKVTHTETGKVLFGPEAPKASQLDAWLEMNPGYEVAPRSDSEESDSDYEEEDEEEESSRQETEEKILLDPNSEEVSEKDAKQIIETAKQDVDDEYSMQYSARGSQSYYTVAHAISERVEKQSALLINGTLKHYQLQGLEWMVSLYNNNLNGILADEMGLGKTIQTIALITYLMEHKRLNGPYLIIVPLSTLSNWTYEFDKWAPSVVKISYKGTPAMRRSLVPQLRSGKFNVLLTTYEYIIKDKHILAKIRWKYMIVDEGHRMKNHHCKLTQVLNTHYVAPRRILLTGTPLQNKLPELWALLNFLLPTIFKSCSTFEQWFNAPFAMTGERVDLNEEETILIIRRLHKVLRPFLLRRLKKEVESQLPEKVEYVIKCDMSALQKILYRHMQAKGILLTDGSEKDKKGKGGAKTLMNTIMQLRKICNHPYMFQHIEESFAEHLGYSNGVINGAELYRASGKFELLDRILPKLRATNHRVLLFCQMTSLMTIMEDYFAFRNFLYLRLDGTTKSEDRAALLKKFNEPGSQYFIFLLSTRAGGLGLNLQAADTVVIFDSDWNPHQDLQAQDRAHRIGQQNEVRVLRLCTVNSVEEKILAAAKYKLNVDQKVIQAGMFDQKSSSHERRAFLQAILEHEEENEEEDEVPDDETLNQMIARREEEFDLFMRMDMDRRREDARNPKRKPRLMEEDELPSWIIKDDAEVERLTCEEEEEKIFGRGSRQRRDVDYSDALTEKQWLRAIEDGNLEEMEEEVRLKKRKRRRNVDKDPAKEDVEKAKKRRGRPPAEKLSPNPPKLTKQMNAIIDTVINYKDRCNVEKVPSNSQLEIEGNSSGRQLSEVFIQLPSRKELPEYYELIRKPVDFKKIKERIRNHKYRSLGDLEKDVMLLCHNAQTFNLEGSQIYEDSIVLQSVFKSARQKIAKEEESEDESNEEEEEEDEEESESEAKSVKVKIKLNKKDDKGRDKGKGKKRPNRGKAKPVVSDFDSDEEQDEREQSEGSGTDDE
Parameter: Dmax. Scope: all listed entries.

Worked cases, answers included:
Cc1ncsc1-c1ccc(CNC(=O)[C@@H]2C[C@@H](O)CN2C(=O)[C@@H](NC(=O)CCCCN2CCC(c3cnc(N4C5CCC4CN(c4cc(-c6ccccc6O)nnc4N)C5)nc3)CC2)C(C)(C)C)cc1: < 50%
Cc1ncsc1-c1ccc(CNC(=O)[C@@H]2C[C@@H](O)CN2C(=O)[C@@H](NC(=O)C2CC3CCC2C[C@H]3c2cnc(N3C4CCC3CN(c3cc(-c5ccccc5O)nnc3N)C4)nc2)C(C)(C)C)c(C(F)(F)F)c1 (some centres unmarked): 50 to 70%
Cc1ncsc1-c1ccc(CNC(=O)[C@@H]2C[C@@H](O)CN2C(=O)C(NC(=O)C[C@H]2CC[C@@H](N3CCC(c4cnc(N5C6CCC5CN(c5cc(-c7ccccc7O)nnc5N)C6)nc4)CC3)CC2)C(C)(C)C)cc1 (some centres unmarked): > 90%
Cc1ncsc1-c1ccc(CNC(=O)[C@@H]2C[C@@H](O)CN2C(=O)[C@@H](NC(=O)C[C@H]2CC[C@H](N3CCC(n4cc(-c5cc(-c6ccccc6O)nnc5N)cn4)CC3)CC2)C(C)(C)C)cc1: > 90%
Cc1ncsc1-c1ccc(CNC(=O)[C@@H]2C[C@@H](O)CN2C(=O)[C@@H](NC(=O)CCN2CCC[C@H](Cn3cc(-c4cc(-c5ccccc5O)nnc4N)cn3)C2)C(C)(C)C)cc1: < 50%
Cc1ncsc1-c1ccc(CNC(=O)[C@@H]2C[C@@H](O)CN2C(=O)[C@@H](NC(=O)[C@H]2CC[C@@H](N3CCC(N4CCC(n5cc(-c6cc(-c7ccccc7O)nnc6N)cn5)CC4)CC3)CC2)C(C)(C)C)cc1: < 50%
Cn1c(=O)n(C2CCC(=O)NC2=O)c2ccc(CCCOCCCCN3CCN(Cc4ccc(C#Cc5cc(NC(=O)Nc6cc(F)ncc6CO)ccn5)cc4)CC3)cc21 (centres unmarked): < 50%
Cc1ncsc1-c1ccc(CNC(=O)[C@@H]2C[C@@H](O)CN2C(=O)[C@@H](NC(=O)c2ccc(CN3CCC(c4cnc(N5C6CCC5CN(c5cc(-c7ccccc7O)nnc5N)C6)nc4)CC3)cc2)C(C)(C)C)cc1: > 90%

Task: # query: Dmax of entry Cc1ncsc1-c1ccc(CNC(=O)[C@@H]2C[C@@H](O)CN2C(=O)[C@@H](NC(=O)[C@H]2CC[C@H](N3CC(c4cnc(N5C6CCC5CN(c5cc(-c7ccccc7O)nnc5N)C6)nc4)C3)CC2)C(C)(C)C)cc1
Result: > 90%
